system: HT-22; experiment: Neuroprotective activity against glutamate-indcued depletion of intracellular glutathione in mouse HT22 cells assessed as increase in cell viability at 3 uM after 24 hrs by MTT assay relative to control; assay type: functional
MEASURED_PARAMETER: Efficacy (%)
Provide the reading as a plain figure in %.

Cc1c(C)c2c(c(-c3cc(-c4ccccc4)on3)c1O)CCC(C)(C)O2 | 79
CCCc1cc(-c2c(O)c(C)c(C)c3c2CCC(C)(C)O3)no1 | 77
Cc1c(C)c2c(c(C)c1O)CCC(C)(c1cc(-c3ccccc3)on1)O2 (centres undefined) | 81

Now for a further compound.
### Prompt // returns reported Efficacy for input Cc1c(C)c2c(c(-c3cc(-c4ccc([N+](=O)[O-])cc4)no3)c1O)CCC(C)(C)O2
### Response 76

----------
tested on: HT-22; assay: Cytotoxicity against mouse HT22 cells at 10 uM after 24 hrs by Trypan blue exclusion assay relative to control; type: cell-based; settings: ht-22, 24 h
MEASURED_PARAMETER: Activity

Cc1c(C)c2c(c(-c3cc(-c4ccccc4)no3)c1O)CCC(C)(C)O2 | Non-toxic
Cc1c(C)c2c(c(-c3cc(-c4ccc(O)c(O)c4)no3)c1O)CCC(C)(C)O2 | 82%
COc1ccc(-c2cc(-c3c(O)c(C)c(C)c4c3CCC(C)(C)O4)on2)cc1 | Non-toxic
Cc1c(C)c2c(c(C)c1O)CCC(C)(c1cc(-c3ccccc3)no1)O2 (centres undefined) | Non-toxic
Cc1c(C)c2c(c(C)c1O)CCC(C)(c1cc(-c3ccccc3)on1)O2 (centres undefined) | 35%
Cc1c(C)c2c(c(-c3cc(-c4c(O)c(C)c(C)c5c4CCC(C)(C)O5)on3)c1O)CCC(C)(C)O2 | Non-toxic
COc1ccc(-c2cc(C3(C)CCc4c(C)c(O)c(C)c(C)c4O3)on2)cc1 (centres undefined) | Non-toxic
COc1c(C)c(C)c2c(c1C)CCC(C)(COCc1cc(-c3ccc(O)cc3)no1)O2 (centres undefined) | Non-toxic

Now for a further compound.
### Prompt // returns reported Activity for input Cc1c(C)c2c(c(-c3cc(-c4ccc([N+](=O)[O-])cc4)no3)c1O)CCC(C)(C)O2
### Response 26%

----------
test system: HT-22; assay: Cytotoxicity against mouse HT22 cells at 10 uM after 24 hrs by Trypan blue exclusion assay relative to control; format: cell-based; conditions: ht-22, 24 h
MEASURED_PARAMETER: Activity

Sample answers from the record:
Cc1c(C)c2c(c(-c3cc(-c4ccc(O)c(O)c4)on3)c1O)CCC(C)(C)O2 | 52%
COc1ccc(-c2cc(-c3c(O)c(C)c(C)c4c3CCC(C)(C)O4)no2)cc1 | Non-toxic
Cc1c(C)c2c(c(-c3cc(-c4ccccc4)on3)c1O)CCC(C)(C)O2 | 36%
COc1ccc(-c2cc(COCC3(C)CCc4c(C)c(O)c(C)c(C)c4O3)on2)cc1 (stereo not drawn) | Non-toxic

Now for a further compound.
### Prompt // returns reported Activity for input Cc1c(C)c2c(c(C)c1O)CCC(C)(c1cc(C3CCCC3)on1)O2 (stereo not drawn)
### Response Non-toxic
